apparent Kd listing for selected sequences.
System: MS2 coat protein
Test method notes: apparent Kd, MS2 coat protein; higher = weaker binding; RNA-MaP array; tryptophan 2.4 mM where present
Particulars: ligand present: tryptophan; designed as: ON switch for tryptophan
Recorded metric: apparent Kd (nM)

INSERT INTO results (monomer_sequence, units_symbol, measurement) VALUES
  ('GCAUCCUAGUCGGCCGCCACUGGUAUCAACACCUUCACCCGUGUGCACAUGAGGAUCACCCAUGUUAGGACCGGGACUAGGAUGC', 'nM', 8.5),
  ('ACAUGAGGAUCACCCAUGUGUGUAAGUCCUCGAGGACCGGUACGGCCGCCACUCGAACGAGUGUAACAUACUUGUUACAAGUAUG', 'nM', 24.4),
  ('UGUCAUGGAAACAUGACAGGUUCUACCGGUCGAGGACCGGUACGGCCGCCACUCGAUUGGUGGCACAUGAGGAUCACCCAUGUUA', 'nM', 25.2),
  ('AGCACGGUGAUGGUAGCCGGACGCUAGGUACGAGGACCGGUACGGCCGCCACUCGAAGUCCUACGACAUGAGGAUCACCCAUGUA', 'nM', 40.5),
  ('AUAAUAAUCCUCAUGUAAGGUCCUCGAUAACGAGGACCGGUACGGCCGCCACUCGAACAUGAGGAUCACCCAUGUACGAGGACCA', 'nM', 32.6),
  ('ACAUUGCGCUCGGCCGCCACUGGCUAUAGAUUUAUAGCAUUAAUGAACAUGAGGAUCACCCAUGUCAGGACCGGGAGCGAACCAU', 'nM', 14.5),
  ('GCAUCCUAGUCGGCCGCCACUGCAAUUGUAAUACUGCUACAUGAACAUGAGGAUCACCCAUGUAGCAGGACCGGGACUAGGAUGC', 'nM', 27);

====

Tested on: MS2 coat protein
Test method notes: apparent Kd, MS2 coat protein; higher = weaker binding; RNA-MaP array
Particulars: designed as: ON switch for flavin mononucleotide; no ligand
Recorded metric: apparent Kd

INSERT INTO measurements (monomer_sequence, measurement) VALUES
  ('UUCGACCACGAGAAGGUGACGAAGGCCGAUUGUCAAGGAUAUCGACACAUGAGGAUCACCCAUGUCAGAGCGGGACUAACUAAA', '22.6 nM'),
  ('AAGAAGUACCAGAAGGGAGGAGGAAAUCUACAUGAGGAUCACCCAUGUACUUGCGGAUUUAAAUCUCAGGAUAUGGGAUACACA', '49.7 nM'),
  ('GACACCGGUAUGGAGGAUAUGGGAGACAGUACAUGAGGAUCACCCAUGUCGUUAAGAAGAUAUCACCAGAAGGCCACUCGGUCGAG', '13.5 nM'),
  ('AACAUGAGGAUCACCCAUGUUAGAAUAACAACGGAAAUAACAGAGGAUAUCGUUAAUUAAUAGCGCGAGAAGGCAGAAUUCAAA', '6.86 nM'),
  ('CUUGGAAGACAGAAGGGCAUCCACCCGGGACCAGCAGGAUAUGUCAACGGUAGCCGAAAACAUGAGGAUCACCCAUGUCAGAAG', '75.8 nM'),
  ('UCUUGACAUGAGGAUCACCCAUGUCACAUUUCUAGAGGAUAUAUACAUGUUGAUCUCUGUAUAGAAGGCUAAGUCG', '18.5 nM'),
  ('UACCUUAUGGAGAAGGCACGUCUCAGAGGAGCAACAUGAGGAUCACCCAUGUACCUGGGCUGAAGUGAGGAUAUCCAAAUCCCA', '14.4 nM');

====

apparent Kd listing for selected sequences.
Test system: MS2 coat protein
Test method notes: apparent Kd, MS2 coat protein; higher = weaker binding; RNA-MaP array; FMN 200 µM where present
Particulars: ligand present: flavin mononucleotide; designed as: OFF switch for flavin mononucleotide
Recorded metric: apparent Kd (nM)

INSERT INTO results (monomer_sequence, recorded_metric, measurement) VALUES
  ('CGACCACAUGAGGAUCACCCAUGUAAGGAUAUAUUGAAUGAGCCGGCGGCAGUAAAAGAUAGAAGGUGCGUGUA', 'apparent Kd', 22),
  ('UUCGGCAGUGCAGGAUAUCUAGAGAAACACCUAAGAGAAGGGCAAACAUGAGGAUCACCCAUGUUUGGCGUGAGGUGAAGUUAG', 'apparent Kd', 6.02),
  ('CCCACGAAAGUCGAACGAUGAUGGAGAAGGAGUAUAACAUGACAUGAGGAUCACCCAUGUGCCAACUAGGAUAUCCAUCAUGGG', 'apparent Kd', 8.55),
  ('UAGAAUCGAGGAUAUACAUGAGGAUCACCCAUGUGUGGCCAUACUGUGUGGUCGUCAGGUAGAAGGCGAUUAUA', 'apparent Kd', 22.6),
  ('CGUCAGUGAGGAUAUGGUAUCGUGUACAUGAGGAUCACCCAUGUUUCUUGGGACUAUAUACUAGAAGGCACUGACG', 'apparent Kd', 35.3),
  ('ACGCAUUGCCUUUGGUAGUGCGUAACAUGAGGAUCACCCAUGUAGGAUAUGGUAGGCUUUGCUUACCAGAAGGACAUUAUAAAC', 'apparent Kd', 48.5),
  ('GUGCGUGGCUAGGAUAUUGUGGAGUUUAGUCAGCGAGAAGGUGCCACAUGAGGAUCACCCAUGUGGUGUUGCUC', 'apparent Kd', 21.7);

====

Tested on: MS2 coat protein
Test method notes: apparent Kd, MS2 coat protein; higher = weaker binding; RNA-MaP array; FMN 200 µM where present
Particulars: ligand present: flavin mononucleotide; designed as: OFF switch for flavin mononucleotide
Output: class label from apparent Kd. Mapping: lower = under 30 nM, middle = from 30 nM up to 100 nM, upper = 100 nM and over

INSERT INTO assay_data (monomer_sequence, assigned_category) VALUES
  ('GUCCGGCGUGUAGGAUAUGGAUCCGAUUAGGAUCCAGAAGGACAUGAGGAUCACCCAUGUACAUGUAAACAGUCAUCACCGGAU', 'lower'),
  ('UGGAGGUCAGGAUAUGCAUGGCGGGACUUGCGUCGUGGCGUGCAGAAGGGACAUGAGGAUCACCCAUGUGGAGC', 'middle'),
  ('UUGUUCUGAGGAUAUACAUGAGGAUCACCCAUGUGUUUCUGCUAGGAGACUAGCGAAUGUAGAAGGCUGUUCUC', 'lower'),
  ('CGUCCUUAGUGAGGAUAUCAGAAAAUACGGAAAUGAGAAGGCACAUGAGGAUCACCCAUGUAAAUAACGGCCGGUCUUGGCAGC', 'lower'),
  ('CUGUGACGGUGCGCAAGUGGACGGAGAAGGGACACAUGAGGAUCACCCAUGUGAGCCUGCUAUUGUCAGGAUAUCCGUUCGUAC', 'lower'),
  ('AAAAUGUAAGGAUAUGCUGCUCGUCACUUGCGUGAUGAGUAGCAGAAGGUACAUGAGGAUCACCCAUGUAAAGA', 'middle'),
  ('UUUCCCUGGCAAGGAUAUCCUGUGCGGUUCCGGCUCGUGUCUGUUACAUGAGGAUCACCCAUGUGGGAGAAGGUGCCUGUGGCU', 'upper'),
  ('GGAUAGGACAGAGGAUAUACGUGCUCGAGAUACUAGCAAAAUUUCCUCACAUGAGGAUCACCCAUGUAGAAGGCUGUCCUAUCG', 'upper'),
  ('GUAUAUAGUGUGAGGAUAUGCUGGUCCUUGGAUCAGCAGAAGGCACAUGAGGAUCACCCAUGUAGUUUAUUUUA', 'middle'),
  ('CUCUUGUGAGGAUAUCGAAGAAAAGAAAAGAAAGAAAAGAACGAGAAGGCACAUGAGGAUCACCCAUGUAAGAA', 'upper'),
  ('UGCCGUAGAGGAUAUACAUAGAAAUAGAUUCAUGUAAAACUACAUGAGGAUCACCCAUGUAGAAGGCUAUGGCU', 'upper'),
  ('GCACUGGAUGUAGGAUAUCAGGACGAUAAGUCCUGAGAAGGACAUGAGGAUCACCCAUGUGAAAAUUACCAGUGCAAUAAUAUA', 'middle'),
  ('GGAUCGAAUGUGAGGAUAUGCUGGUCCUUGGAUCAGCAGAAGGCACAUGAGGAUCACCCAUGUGGUAACGGUCC', 'upper'),
  ('AAAUUUAACGAAGGAUAUGCUGACAUGAGGAUCACCCAUGUGUGCCUUGUGUUGCUGAUUAGGUUGCAGAAGGUCGUAUACAUA', 'upper'),
  ('GGUCCGAGUGUGAGGAUAUGCUGGUCCUUGGAUCAGCAGAAGGCACAUGAGGAUCACCCAUGUGGAGACGGACC', 'upper'),
  ('GCUGACGAUGUAGGAUAUCAGUAUAAUAAAUACUGAGAAGGACAUGAGGAUCACCCAUGUAAAACUCCGUCAGCGAGGAAACUC', 'lower'),
  ('CUUGUGUUAGGAUAUGCGCCCUGCAGAAGCAGGGCCAGAGAGCAGAAGGAACAUGAGGAUCACCCAUGUGUGAC', 'middle'),
  ('GGUACUCAAAGAGUACCACUACGAACAUGAGGAUCACCCAUGUAGGAUAUGCUACUCAAAGAGUAGCAGAAGGACAUGUGCCUA', 'upper'),
  ('CUUUCGUUAGCAGGAUAUGGACAGGCCUGUCCGUAUUGAGUCAGUAACAUGAGGAUCACCCAUGUCCAGAAGGGCUCGAAGGGA', 'middle'),
  ('GUCCUUAACAAGGAUAUCGGGCGGGUUUUUGUUUGAGAAGGUGUGACAUGAGGAUCACCCAUGUGGCGCGUGGG', 'upper'),
  ('CUUUUGUGAGGAUAUUAGUAGUAAAUUAAUAAAAUUACUACUGAGAAGGCACAUGAGGAUCACCCAUGUUCCUC', 'upper'),
  ('CUUUCGUGAGGAUAUGAAACUUCGAUCGUGAGAUCGAGGCUACAGAAGGCACAUGAGGAUCACCCAUGUUCCUC', 'upper'),
  ('GAAUAAUUGAUCCUUUUUUAUUACAUGAGGAUCACCCAUGUGCAGGAUAUCGAUUAUUAUAGUUUCGAGAAGGGCAAGAACUAU', 'upper'),
  ('UCGCGGGAGCAGAAGGGAUAGGCCUAUUGUCGUGGAGUCUAAACUUAACAUGAGGAUCACCCAUGUCAGGAUAUGCCCACGCGA', 'lower'),
  ('GGUUGUCAUCGUCAUCCUUUCGGUACAUGAGGAUCACCCAUGUAGGAUAUGCUGCUCUCGGUGUGGCAGAAGGGCGUGUGUGUU', 'middle'),
  ('GUCAGCUCGUGAGGAUAUACAACACUGCUUCGGCAGUGUAUUAAGAUGACAUGAGGAUCACCCAUGUAGAAGGCACGAGCUGAU', 'lower'),
  ('GAGUUGAACGAGAAGGCCACUACAUGAGGAUCACCCAUGUCGUAGAGUAUUGGAGGAUAUCGAUAGGCGUCUCAUGAGGACAUA', 'lower');

Origin of the recorded values: the EternaBench riboswitch data
